All values here come from patent EP4786492A1.

# system: mouse DLL3 on CHO-K1-mDLL3 cells (mouse) (UniProt O88516)
# Sequence (O88516 other isoform, or with tags, fused parts or gaps limits assumed): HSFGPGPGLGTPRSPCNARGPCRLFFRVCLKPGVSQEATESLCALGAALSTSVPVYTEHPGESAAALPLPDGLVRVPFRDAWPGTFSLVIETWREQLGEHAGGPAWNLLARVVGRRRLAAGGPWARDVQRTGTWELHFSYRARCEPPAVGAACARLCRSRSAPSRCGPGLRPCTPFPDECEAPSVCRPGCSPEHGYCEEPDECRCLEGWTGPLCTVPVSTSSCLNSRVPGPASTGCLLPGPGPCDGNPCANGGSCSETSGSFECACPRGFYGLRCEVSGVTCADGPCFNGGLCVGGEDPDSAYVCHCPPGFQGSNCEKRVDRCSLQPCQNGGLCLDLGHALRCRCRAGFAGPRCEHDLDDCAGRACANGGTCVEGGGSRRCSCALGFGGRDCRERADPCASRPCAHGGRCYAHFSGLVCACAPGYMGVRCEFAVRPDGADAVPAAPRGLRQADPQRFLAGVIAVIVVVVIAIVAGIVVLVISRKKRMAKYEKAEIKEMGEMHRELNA
# methodSummary: FACS, CHO-K1-mDLL3 cells, 4 nM antibody
attributeMeasured: MFI (MFI)
Give a bare numeral; the unit MFI is implied.

Please fill in: MFI reported for Hab014VL3VH1-hFc (scFv, part only; not given: VL-VH linker and human IgG1 Fc, V domains shown, not shown: another chain or arm of the molecule; a dimerising Fc or GST; small tags and cut ends) VL: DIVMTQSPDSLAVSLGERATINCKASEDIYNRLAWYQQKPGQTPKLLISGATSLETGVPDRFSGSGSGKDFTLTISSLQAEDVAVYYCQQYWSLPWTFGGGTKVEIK VH: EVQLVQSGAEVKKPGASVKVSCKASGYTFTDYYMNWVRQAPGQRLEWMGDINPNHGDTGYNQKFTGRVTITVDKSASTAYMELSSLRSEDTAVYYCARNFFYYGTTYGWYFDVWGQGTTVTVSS = 296

Please fill in: MFI reported for Hab006VL1VH4-hFc (scFv, part only; not given: VL-VH linker and human IgG1 Fc, V domains shown, not shown: another chain or arm of the molecule; a dimerising Fc or GST; small tags and cut ends) VL: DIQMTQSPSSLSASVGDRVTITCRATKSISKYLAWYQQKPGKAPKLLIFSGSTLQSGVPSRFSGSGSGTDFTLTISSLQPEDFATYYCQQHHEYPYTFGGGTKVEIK VH: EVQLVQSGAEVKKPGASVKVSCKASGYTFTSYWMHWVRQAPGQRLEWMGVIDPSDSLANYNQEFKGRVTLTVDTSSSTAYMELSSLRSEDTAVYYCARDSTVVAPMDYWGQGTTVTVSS = 615

Please fill in: MFI reported for Hab015VL5VH5a-hFc (scFv, part only; not given: scFv linker and human IgG1 Fc, V domains shown, not shown: another chain or arm of the molecule; a dimerising Fc or GST; small tags and cut ends) VL: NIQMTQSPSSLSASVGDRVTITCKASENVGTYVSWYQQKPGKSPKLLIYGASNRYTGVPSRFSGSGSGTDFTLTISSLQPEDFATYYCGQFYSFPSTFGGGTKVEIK VH: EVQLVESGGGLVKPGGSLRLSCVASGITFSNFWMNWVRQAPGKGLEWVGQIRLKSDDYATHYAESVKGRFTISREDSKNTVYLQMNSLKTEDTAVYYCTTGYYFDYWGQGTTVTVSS = 1240

Please fill in: MFI reported for Hab015VL5VH1b-hFc (scFv, part only; not given: VL-VH linker and human IgG1 Fc, V domains shown, not shown: another chain or arm of the molecule; a dimerising Fc or GST; small tags and cut ends) VL: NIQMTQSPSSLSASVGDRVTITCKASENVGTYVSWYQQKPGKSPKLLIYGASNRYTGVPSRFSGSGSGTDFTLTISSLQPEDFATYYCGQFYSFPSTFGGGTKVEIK VH: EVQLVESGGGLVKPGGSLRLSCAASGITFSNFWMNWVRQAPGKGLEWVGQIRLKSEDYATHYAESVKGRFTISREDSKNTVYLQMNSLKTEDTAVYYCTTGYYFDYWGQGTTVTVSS = 1160
